targetDesc: T1, EsCas13d, nuclease-dead (Eubacterium siraeum, UniProt B0MS50, R295A;H300A;R849A;H854A)
T1 sequence: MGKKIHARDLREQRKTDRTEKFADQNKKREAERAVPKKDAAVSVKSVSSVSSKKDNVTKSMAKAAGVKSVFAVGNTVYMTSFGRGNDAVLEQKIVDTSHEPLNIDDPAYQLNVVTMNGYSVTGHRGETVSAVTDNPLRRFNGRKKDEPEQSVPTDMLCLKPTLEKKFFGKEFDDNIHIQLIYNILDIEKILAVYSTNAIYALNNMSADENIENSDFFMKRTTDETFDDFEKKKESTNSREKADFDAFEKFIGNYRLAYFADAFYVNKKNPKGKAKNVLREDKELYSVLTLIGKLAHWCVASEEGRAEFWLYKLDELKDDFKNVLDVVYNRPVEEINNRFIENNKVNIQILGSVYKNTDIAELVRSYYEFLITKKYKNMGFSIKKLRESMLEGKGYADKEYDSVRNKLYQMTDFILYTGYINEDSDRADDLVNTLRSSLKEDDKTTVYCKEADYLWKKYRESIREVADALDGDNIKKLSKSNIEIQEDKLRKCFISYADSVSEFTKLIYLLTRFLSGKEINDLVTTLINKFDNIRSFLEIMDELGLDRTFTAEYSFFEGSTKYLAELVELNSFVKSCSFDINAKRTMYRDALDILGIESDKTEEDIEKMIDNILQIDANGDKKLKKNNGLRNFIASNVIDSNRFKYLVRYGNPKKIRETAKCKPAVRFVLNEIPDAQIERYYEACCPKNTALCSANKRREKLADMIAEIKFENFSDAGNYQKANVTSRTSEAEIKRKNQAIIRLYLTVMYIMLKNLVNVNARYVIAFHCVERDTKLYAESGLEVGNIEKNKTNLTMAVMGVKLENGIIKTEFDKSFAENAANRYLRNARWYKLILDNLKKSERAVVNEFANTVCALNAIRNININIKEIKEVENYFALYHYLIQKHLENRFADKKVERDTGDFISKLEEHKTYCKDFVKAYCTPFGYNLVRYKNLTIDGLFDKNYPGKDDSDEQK
assayComment: crRNA (strand 1, pre-loaded); Mg2+; 40 mM Tris-HCl pH 7.5, 150 mM NaCl, 6 mM MgCl2, 1 mM DTT, 0.1% Tween-20, 0.2 mg/ml BSA; 25 C; 10 min per concentration, then washed
conditionContext: tags: His6-TwinStrep-SUMO cleaved; N-terminal SNAP kept (SNAP-Surface 488); label: 3' end held by stalled T7 RNA polymerase
propertyMeasured: pKd
Give only the number. pKd is defined as minus log10 of concentration in molar units.

binder	numericValue
target 2 MT 5'PFS UCG 3'PFS CUC (mixed) RNA 1: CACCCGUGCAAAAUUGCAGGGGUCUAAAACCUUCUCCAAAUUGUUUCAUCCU RNA 2: GGGAAUGGAUCCACAUCUACGAAUUCUCGAGGAUGAAACAAUUUGGAGAAGCUCAGAUCGGAAGAGCACACGU	7.64

Please examine the following record next.
May I ask what pKd has been recorded for target 2 MT 5'PFS CGA 3'PFS UUC (mixed) RNA 1: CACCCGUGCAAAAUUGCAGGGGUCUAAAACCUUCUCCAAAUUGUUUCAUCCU RNA 2: GGGAAUGGAUCCACAUCUACGAAUUCCGAAGGAUGAAACAAUUUGGAGAAGUUCAGAUCGGAAGAGCACACGU ?
7.94
